B1: Proto-oncogene vav, residues 782 to 842; numbered along this chain, P15498 (parent)
chain: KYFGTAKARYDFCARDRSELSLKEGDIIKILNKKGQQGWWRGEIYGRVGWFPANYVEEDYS

- Variants of: B1
- Method: abundance fitness (aPCA) (normalised: wild type 0, dead -1); higher = more abundant; growth selection in yeast, the domain comes from the species named
- Condition description: Homo sapiens
Assign abundance fitness to each entry below.
API doc: respond with a numeric literal and nothing else, no unit.

Enquiry: Entry KYFGTAKARYDFCARDRSELSLKEGDIIKILNKKGQQGWWRGEIYGRVGWFPANYVPEDYS [E57P] has what abundance fitness?
Return: -1.02

Enquiry: Entry KYYGTAKARYDFCARDRSELSLKEGDIIKILNKKGQQGWWRGEIYGRVGWFPANYVEEDYS [F3Y] has what abundance fitness?
Return: -0.009

Enquiry: Entry KYFGTAKARYDFCARDRSELSLKEGDIIKILNKRGQQGWWRGEIYGRVGWFPANYVEEDYS [K34R] has what abundance fitness?
Return: 0.019

Enquiry: Entry KYFGTAKARYDFCARDRSELSLKEGDIIKILNKKGQQGWWRGGIYGRVGWFPANYVEEDYS [E43G] has what abundance fitness?
Return: -0.702

Enquiry: Entry KYFGTAKARYDFCARDRSELSLKEGDIIKILNKKGQQFWWRGEIYGRVGWFPANYVEEDYS [G38F] has what abundance fitness?
Return: -0.82

Enquiry: Entry KYFGTAKARYDFCARDRSELSLKEGDIIKILNKKGQQGWWRGEIYGRVGWFPMNYVEEDYS [A53M] has what abundance fitness?
Return: -0.178

Enquiry: Entry KYFGTAKARYDQCARDRSELSLKEGDIIKILNKKGQQGWWRGEIYGRVGWFPANYVEEDYS [F12Q] has what abundance fitness?
Return: -0.553

Enquiry: Entry KYFGTAKARYDFCARDRSELSLKEGDIIKILNKKGQQGWWRGEIYGRVGWFPANYVAEDYS [E57A] has what abundance fitness?
Return: -0.052

Enquiry: Entry KYFGTAKARYDFCARDRSELSLKEGDIIKILNKKGQQGWWRGEIYGRVGWFPANYVEEDYI [S61I] has what abundance fitness?
Return: -0.2

Enquiry: Entry KYFGTAKARYDFCARDRSELSLKEGDIIKILNKKWQQGWWRGEIYGRVGWFPANYVEEDYS [G35W] has what abundance fitness?
Return: -0.6

Enquiry: Entry KYFGTAKARYDFCARDRSELSLKEGDIIKILNKKGQQGWWRIEIYGRVGWFPANYVEEDYS [G42I] has what abundance fitness?
Return: -0.832

Enquiry: Entry KYFGTAKARYDFCARDRSELSLKEGDIIKILVKKGQQGWWRGEIYGRVGWFPANYVEEDYS [N32V] has what abundance fitness?
Return: -0.223

Enquiry: Entry KYFGTAKARYDFCARDRSELSLKEGDIIKILNKKGQQGWWRGEIYGRVGWFPANEVEEDYS [Y55E] has what abundance fitness?
Return: -0.763

Enquiry: Entry HYFGTAKARYDFCARDRSELSLKEGDIIKILNKKGQQGWWRGEIYGRVGWFPANYVEEDYS [K1H] has what abundance fitness?
Return: -0.109

Enquiry: Entry KYFGTAKARYDFCARDRSELFLKEGDIIKILNKKGQQGWWRGEIYGRVGWFPANYVEEDYS [S21F] has what abundance fitness?
Return: -0.607

Enquiry: Entry KYFGFAKARYDFCARDRSELSLKEGDIIKILNKKGQQGWWRGEIYGRVGWFPANYVEEDYS [T5F] has what abundance fitness?
Return: 0.168

Enquiry: Entry KYFGTAKARYDFCARDRSELSLKEGDIIKILNKKGQQGWWRGMIYGRVGWFPANYVEEDYS [E43M] has what abundance fitness?
Return: -0.389

Enquiry: Entry KYFGTAKARYDFCARDRSELSLKEGDIIKILKKKGQQGWWRGEIYGRVGWFPANYVEEDYS [N32K] has what abundance fitness?
Return: -0.221

Enquiry: Entry KYFGTAKARYDFHARDRSELSLKEGDIIKILNKKGQQGWWRGEIYGRVGWFPANYVEEDYS [C13H] has what abundance fitness?
Return: -0.131

Enquiry: Entry KYFGTAKARYDFCARDRSELSLKEGDIIKITNKKGQQGWWRGEIYGRVGWFPANYVEEDYS [L31T] has what abundance fitness?
Return: -0.133

Enquiry: Entry KYFGTAKARYDFCARDRSELSLKEGDIIKILNGKGQQGWWRGEIYGRVGWFPANYVEEDYS [K33G] has what abundance fitness?
Return: -0.734

Enquiry: Entry KYFGTAKARYDFCARDRSELSLKEGDIIKSLNKKGQQGWWRGEIYGRVGWFPANYVEEDYS [I30S] has what abundance fitness?
Return: -0.662

Enquiry: Entry KYFGTAKARYDFCARERSELSLKEGDIIKILNKKGQQGWWRGEIYGRVGWFPANYVEEDYS [D16E] has what abundance fitness?
Return: -0.225

Enquiry: Entry KYFGTAKARYDFCARDRSELCLKEGDIIKILNKKGQQGWWRGEIYGRVGWFPANYVEEDYS [S21C] has what abundance fitness?
Return: -0.445

Enquiry: Entry KYFGTAHARYDFCARDRSELSLKEGDIIKILNKKGQQGWWRGEIYGRVGWFPANYVEEDYS [K7H] has what abundance fitness?
Return: -0.233

Enquiry: Entry KYFGTAKARYDFCARDRSELPLKEGDIIKILNKKGQQGWWRGEIYGRVGWFPANYVEEDYS [S21P] has what abundance fitness?
Return: -0.36

Enquiry: Entry KYFGTAKARYDFCARDRSEISLKEGDIIKILNKKGQQGWWRGEIYGRVGWFPANYVEEDYS [L20I] has what abundance fitness?
Return: -0.342

Enquiry: Entry KYFGTAKARYDFCARDRSELSLKEGDIIKILNKKGQQGWWRGEGYGRVGWFPANYVEEDYS [I44G] has what abundance fitness?
Return: -0.619

Enquiry: Entry KYFGTAKARYDFCARDRSELSRKEGDIIKILNKKGQQGWWRGEIYGRVGWFPANYVEEDYS [L22R] has what abundance fitness?
Return: -0.791

Enquiry: Entry KYFGTAKARYDFCARDRSELSLKEGDIIKILNKKGQQGWWRGEIYGRVPWFPANYVEEDYS [G49P] has what abundance fitness?
Return: -0.776

Enquiry: Entry KYFGTAKARYDFCARDRSELSLKEGDIIKILNKKGQQGWWKGEIYGRVGWFPANYVEEDYS [R41K] has what abundance fitness?
Return: 0.008

Enquiry: Entry KYFGTAKARYDFCARDRSELSLKEGDIIKILNKKGQQMWWRGEIYGRVGWFPANYVEEDYS [G38M] has what abundance fitness?
Return: -0.795

Enquiry: Entry KYFGTAKARYDFCARDQSELSLKEGDIIKILNKKGQQGWWRGEIYGRVGWFPANYVEEDYS [R17Q] has what abundance fitness?
Return: -0.044

Enquiry: Entry KYFGTAKARYDFCARDRSELSLKEGDIIKILNKKGQQGWWRGEIYKRVGWFPANYVEEDYS [G46K] has what abundance fitness?
Return: -0.516

Enquiry: Entry KYFGTAKARYDFCARDRSELSLKEGDIIKILNKKGQQGWWRGEIYGRVDWFPANYVEEDYS [G49D] has what abundance fitness?
Return: -0.956

Enquiry: Entry KYFGTAKARYDFCARDRSELSLKEGDIIKILNKKGQQGWWRGQIYGRVGWFPANYVEEDYS [E43Q] has what abundance fitness?
Return: -0.019

Enquiry: Entry KYFGTAKMRYDFCARDRSELSLKEGDIIKILNKKGQQGWWRGEIYGRVGWFPANYVEEDYS [A8M] has what abundance fitness?
Return: -0.727
